# Tested on: Mus musculus
# Experiment description: Volume of distribution at steady state in mouse at 1 mg/kg, iv or 10 mg, po
# Assay type: ADME, organism-based
# Design: dose 1 mg/kg, route oral
# Experimental context: in vivo
List of Vdss values.
Express your answer in L/kg, writing the number without its unit.

**Q:** Please give the measured Vdss for this molecule: `CN(C)Cc1cc(C(=O)N[C@@H]2CCc3ccc(Oc4ccnc5c4CCC(=O)N5)cc3C2)cc(C(F)(F)F)c1`
**A:** 0.75

---

# Experiment description: Plasma clearance in mouse at 10 mg, po in 20% HPbCD vehicle
# Assay type: ADME, organism-based
List of CL/F values.
Express your answer in L/h/kg, writing the number without its unit.

| Compound | Measured endpoint | Readout units | Reported |
| --- | --- | --- | --- |
| NCc1cc(NC(=O)C2CCc3ccc(Oc4ccnc(NC(=O)C5CC5)c4)cc3C2)cc(C(F)(F)F)c1 (configuration not stated) | CL/F | L/h/kg | 0.4 |

Consider now this further compound.
**Q:** Please give the measured CL/F for this compound: `CN(C)Cc1cc(NC(=O)[C@H]2CCc3ccc(Oc4ccnc(NC(=O)C5CC5)c4)cc3C2)cc(C(F)(F)F)c1`
**A:** 1.41
